These measurements were taken from patent US20230407373A1.

test system: HCoV-OC43 gRNA and sgRNA; assay type: binding; conditions: type n_48_v; 48 hpi; OC43 Probe II capture on infected cells
// reported target (unweighted spectral count, OC43 Probe II) per item
Quantity: target (unweighted spectral count, OC43 Probe II)

molecule="SSBP1 (protein, UniProt Q04837 17-148, looked up) Single-stranded DNA-binding …: ESETTTSLVLERSLNRVHLLGRVGQDPVLRQVEGKNPVTIFSLATNEMWRSGDSEVYQLGDVSQKTTWHRISVFRPGLRDVAYQYVKKGSRIYLEGKIDYGEYMDKNNVRRQATTIIADNIIFLSDQTKEKE" measured_result=14
molecule="HNRNPD (protein, UniProt Q14103 2-355, looked up) Heterogeneous nuclear …: SEEQFGGDGAAAAATAAVGGSAGEQEGAMVAATQGAAAAAGSGAGTGGGTASGGTEGGSAESEGAKIDASKNEEDEGHSNSSPRHSEAATAQREEWKMFIGGLSWDTTKKDLKDYFSKFGEVVDCTLKLDPITGRSRGFGFVLFKESESVDKVMDQKEHKLNGKVIDPKRAKAMKTKEPVKKIFVGGLSPDTPEEKIREYFGGFGEVESIELPMDNKTNKRRGFCFITFKEEEPVKKIMEKKYHNVGLSKCEIKVAMSKEQYQQQQQWGSRGGFAGRARGRGGGPSQNWNQGYSNYWNQGYGNYGYNSQGYGGYGGYDYTGYNNYYGYGDYSNQQSGYGKVSRRGGHQNSYKPY" measured_result=36
